Target: UniProtKB P08151
Sequence (P08151 1-1106): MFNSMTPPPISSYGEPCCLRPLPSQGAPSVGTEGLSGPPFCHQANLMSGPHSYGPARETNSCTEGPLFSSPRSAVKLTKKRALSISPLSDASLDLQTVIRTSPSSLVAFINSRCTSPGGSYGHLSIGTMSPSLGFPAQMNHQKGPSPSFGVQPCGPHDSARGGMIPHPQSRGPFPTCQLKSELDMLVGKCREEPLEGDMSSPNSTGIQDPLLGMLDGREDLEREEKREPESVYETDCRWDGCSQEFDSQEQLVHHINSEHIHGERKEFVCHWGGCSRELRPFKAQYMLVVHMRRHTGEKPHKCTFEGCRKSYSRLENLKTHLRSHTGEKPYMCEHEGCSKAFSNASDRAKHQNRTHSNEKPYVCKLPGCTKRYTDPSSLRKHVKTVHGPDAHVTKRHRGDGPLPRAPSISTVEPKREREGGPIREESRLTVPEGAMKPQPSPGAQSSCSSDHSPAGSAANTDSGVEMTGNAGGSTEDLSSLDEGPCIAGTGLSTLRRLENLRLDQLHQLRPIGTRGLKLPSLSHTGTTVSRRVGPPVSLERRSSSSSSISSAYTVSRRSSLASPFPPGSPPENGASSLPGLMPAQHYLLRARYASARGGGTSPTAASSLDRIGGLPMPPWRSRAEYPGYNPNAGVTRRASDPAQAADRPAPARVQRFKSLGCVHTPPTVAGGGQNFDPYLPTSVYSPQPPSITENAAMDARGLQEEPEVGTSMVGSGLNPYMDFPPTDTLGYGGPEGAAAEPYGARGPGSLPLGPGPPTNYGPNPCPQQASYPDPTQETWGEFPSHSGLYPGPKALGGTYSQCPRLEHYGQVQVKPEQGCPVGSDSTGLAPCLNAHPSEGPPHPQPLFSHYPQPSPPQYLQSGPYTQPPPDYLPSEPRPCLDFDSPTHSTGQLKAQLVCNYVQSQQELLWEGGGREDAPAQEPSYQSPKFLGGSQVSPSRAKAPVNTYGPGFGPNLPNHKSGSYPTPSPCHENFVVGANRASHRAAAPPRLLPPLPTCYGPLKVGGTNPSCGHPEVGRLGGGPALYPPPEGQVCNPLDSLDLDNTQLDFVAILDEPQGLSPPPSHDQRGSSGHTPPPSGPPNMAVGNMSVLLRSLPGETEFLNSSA
Test: Gli1-mediated transcription luciferase assay in HEK293 cells transiently expressing Gli1
Details: 12×GliBS-Luc reporter, 24 h

COMPOUND: COc1cc(OC)c2c(=O)c(-c3ccc(OCC=C(C)C)c(OCC=C(C)C)c3)coc2c1 [Glabrescione B]
MEASURED_TARGET: UniProtKB P08151
IC50: ~15 µM
